Source listed as the supplement of paper PMC12645437.

Target system: T1, CRBN, Q96SW2;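 note: pooled lentiviral library of zinc finger degron-EGFP fusions in mCherry-positive Jurkat cells, FACS-sorted after compound exposure, with degron abundance counted by next-generation sequencing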
T1 chain: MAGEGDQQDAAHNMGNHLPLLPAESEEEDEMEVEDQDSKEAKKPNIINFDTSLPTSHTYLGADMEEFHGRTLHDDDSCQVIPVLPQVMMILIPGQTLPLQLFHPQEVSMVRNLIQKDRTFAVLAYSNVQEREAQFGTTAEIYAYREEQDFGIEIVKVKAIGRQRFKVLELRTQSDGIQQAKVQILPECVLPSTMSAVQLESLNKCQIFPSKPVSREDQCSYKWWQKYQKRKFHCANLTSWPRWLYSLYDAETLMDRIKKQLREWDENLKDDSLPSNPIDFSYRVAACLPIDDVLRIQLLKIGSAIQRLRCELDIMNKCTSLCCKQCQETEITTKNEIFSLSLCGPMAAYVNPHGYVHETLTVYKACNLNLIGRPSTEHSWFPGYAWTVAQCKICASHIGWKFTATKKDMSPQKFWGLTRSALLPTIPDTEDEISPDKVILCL
Experiment: log2 fold change of degron read counts, EGFP-low vs EGFP+ sorted cells (limma voom), compound-induced degradation; higher = more compound-induced degradation of the degron-EGFP fusion; degrons are variants of IKZF1/3 zinc finger 2; compound dose not given here
Details: Jurkat; 18 h; compound: compound 19 (5-tert-butyl-thalidomide)
Over roughly 8,300 sequences, “log2 fold change of degron read counts, EGFP-low vs EGFP+ sorted cells (limma voom), compound-induced degradation” has its median near -1.1; the highest 2% begin near 3.2. Many of the other results were omitted from the sample, so the highest values are more common in it than they were.
Measured attribute: log2 fold change of degron read counts

Known log2 fold change of degron read counts results, listed for orientation:
LLCEICGFICTQKGNLLRHIKL [46L_47L_49E_50I_52G_53F_54I_55C_67L_, Q9UKT9]
-0.407
FSCPICGANFTQKGNLLRHIKL [46F_47S_49P_50I_52G_53A_54N_55F_67L_, Q9UKT9]
2.46
FKCNICGAWFTQKGNLLRHIKL [46F_47K_49N_50I_52G_53A_54W_55F_67L_, Q9UKT9]
-1.98

Q: # input sequence: FRCSVCGHMFTQKGNLLRHIKL [46F_47R_49S_50V_52G_53H_54M_55F_67L_, Q9UKT9] ; wanted: its log2 fold change of degron read counts
A: -2.17

Q: Please give the result for LTCNQCGFFCTQKGNLLRHIKL [46L_47T_49N_50Q_52G_53F_54F_55C_67L_, Q9UKT9] too.
A: -1.72

Q: Please give the result for FLCNQCGRHFTQKGNLLRHIKL [46F_47L_49N_50Q_52G_53R_54H_55F_67L_, Q9UKT9] too.
A: -2.4

Q: Please give the result for FYCPICGANFTQKGNLLRHIKL [46F_47Y_49P_50I_52G_53A_54N_55F_67L_, Q9UKT9] too.
A: 3.19
